# Lookup of reported viability, T/C keyed by entry
tested on: 782815-120-R-J1-PDC complex spheroid viability; experiment: Anticancer human tumor 782815-120-R-J1-PDC patient-derived colon adenocarcinoma cell line growth inhibition [RAS]; conditions: second compound 0.03 µM; first compound 0.01 µM; active compounds read low;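 further: spheroids exposed to compounds for 7 days before reading; 100% = DMSO vehicle control viability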

O=C(c1ccc(F)c(F)c1Nc1ccc(I)cc1F)N1CC(O)([C@@H]2CCCCN2)C1 + CCn1c(-c2cccnc2C(C)OC)c2c3cc(ccc31)N1CCOC(CC(NC(=O)C(C(C)C)N(C)C(=O)C3(F)CCN(C(=O)C#CC(C)(C)N(C)C)CC3)C(=O)N3CCCC(N3)C(=O)OCC(C)(C)C2)C1 | 86.5%

Now consider a different molecule.
Prompt: Item: C=CC(=O)Nc1cc(Nc2nccc(-c3cn(C)c4ccccc34)n2)c(OC)cc1N(C)CCN(C)C + CCn1c(-c2cccnc2C(C)OC)c2c3cc(ccc31)N1CCOC(CC(NC(=O)C(C(C)C)N(C)C(=O)C3(F)CCN(C(=O)C#CC(C)(C)N(C)C)CC3)C(=O)N3CCCC(N3)C(=O)OCC(C)(C)C2)C1 Test system: 782815-120-R-J1-PDC complex spheroid viability Read-out: viability, T/C Value: ?;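 further: spheroids exposed to compounds for 7 days before reading; 100% = DMSO vehicle control viability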
Completion: 92.8%
